target: BACE1 (Homo sapiens); construct: endogenous in cells; assay: Cellular Aβ-lowering assay (Abeta 40 AlphaLISA); details: HEK293 APP cells, 18-20 hrs incubation, Aβ 40 in culture supernatant; read-out: BACE1 cell act. Aβ40 IC50
Sequence (P56817 46-501): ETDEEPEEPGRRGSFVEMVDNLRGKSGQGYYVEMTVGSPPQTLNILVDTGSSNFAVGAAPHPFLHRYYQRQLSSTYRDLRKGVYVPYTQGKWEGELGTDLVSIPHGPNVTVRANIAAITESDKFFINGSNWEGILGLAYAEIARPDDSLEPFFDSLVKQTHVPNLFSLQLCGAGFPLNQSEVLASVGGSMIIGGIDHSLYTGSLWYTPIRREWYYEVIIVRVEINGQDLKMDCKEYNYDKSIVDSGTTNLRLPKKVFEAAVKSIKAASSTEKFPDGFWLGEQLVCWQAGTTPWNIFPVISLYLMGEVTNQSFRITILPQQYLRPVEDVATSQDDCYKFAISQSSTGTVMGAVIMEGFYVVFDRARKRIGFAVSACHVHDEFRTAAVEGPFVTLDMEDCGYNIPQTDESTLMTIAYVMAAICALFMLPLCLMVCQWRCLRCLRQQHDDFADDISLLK
TEST READOUT: pIC50
As a rule, pIC50 stands for the negative log10 of the concentration, concentration in M.

Exercise: Name the recorded pIC50 for Cc1cnc(C(=O)Nc2ccc(F)c([C@]3(CF)C[C@@H](C(F)(F)F)OC(N)=N3)c2)cn1 .
Key: 7.19

Exercise: Name the recorded pIC50 for NC1=N[C@](CF)(c2cc(NC(=O)c3cnc(C(F)F)cn3)ccc2F)C[C@@H](C(F)(F)F)O1 .
Key: 7.41

Exercise: Name the recorded pIC50 for CC#CCOc1cnc(C(=O)Nc2ccc(F)c([C@]3(C)C[C@@H](C(F)(F)F)OC(N)=N3)c2)cn1 .
Key: 9.70

Kindly consider the entry below.
Exercise: Name the recorded pIC50 for C[C@@]1(c2cc(NC(=O)c3ncc(C#N)cc3Cl)ccc2F)C[C@@H](C(F)(F)F)OC(N)=N1 .
Key: 7.89
